System: normal fibroblast cell line, WI-38
assay.text: MTT cytotoxicity in normal fibroblasts WI-38
condition.details: Homo sapiens, WI-38, read-out: IC50 (µM) WI-38
Listed next: entries and their corresponding IC50.

{"smiles.code": "N#Cc1cnc(N)nc1-c1ccc(F)cc1", "IC50": "> 100 µM"}
{"smiles.code": "Nc1nccc(-c2ccc(C(F)(F)F)cc2)n1", "IC50": "> 100 µM"}

INPUT: What value of IC50 has been reported for the following compound? `NS(=O)(=O)c1cccc(Nc2nccc(-c3ccccn3)n2)c1`
OUTPUT: > 100 µM

====

metric: melting point

Completed entries (count: 4):
{"smiles.code": "NS(=O)(=O)c1cccc(Nc2nccc(-c3cnccn3)n2)c1", "melting point": "288 to 290 °C"}
{"smiles.code": "NS(=O)(=O)c1cccc(Nc2nccc(-c3ccc([N+](=O)[O-])cc3)n2)c1", "melting point": "265 to 267 °C"}
{"smiles.code": "NS(=O)(=O)c1cccc(Nc2nccc(-c3ccc(OC(F)(F)F)cc3)n2)c1", "melting point": "252 to 254 °C"}
{"smiles.code": "N#Cc1cnc(N)nc1-c1ccc(F)cc1", "melting point": "214 to 216 °C"}

With those in mind, consider the next compound.
INPUT: Entry `NS(=O)(=O)c1cccc(Nc2nccc(-c3ccc(C(F)(F)F)cc3)n2)c1` : reported melting point = ?
OUTPUT: 150 to 152 °C

====

measured.target: CDK9/CycT1 (Homo sapiens)
assay.text: Ligand efficiency and ligand lipophilic efficiency (DataWarrior)
condition.details: LLE=pIC50−clogP
Measured LLE values are reported for all entries that follow.
I only need the number, thanks.

{"smiles.code": "NS(=O)(=O)c1cccc(Nc2nccc(-c3cnccn3)n2)c1", "test.result": 5.5526}
{"smiles.code": "NS(=O)(=O)c1cccc(Nc2nccc(-c3ccc(F)cc3)n2)c1", "test.result": 3.8517}
{"smiles.code": "NS(=O)(=O)c1cccc(Nc2nccc(-c3ccc(OC(F)(F)F)cc3)n2)c1", "test.result": 2.7773}

INPUT: What does the record list as LLE for `N#Cc1cnc(Nc2cccc(S(N)(=O)=O)c2)nc1-c1ccc(F)cc1` ?
OUTPUT: 3.9856

====

measured.target: CDK9/CycT1 (Homo sapiens, UniProt P50750)
Sequence (P50750 whole entry): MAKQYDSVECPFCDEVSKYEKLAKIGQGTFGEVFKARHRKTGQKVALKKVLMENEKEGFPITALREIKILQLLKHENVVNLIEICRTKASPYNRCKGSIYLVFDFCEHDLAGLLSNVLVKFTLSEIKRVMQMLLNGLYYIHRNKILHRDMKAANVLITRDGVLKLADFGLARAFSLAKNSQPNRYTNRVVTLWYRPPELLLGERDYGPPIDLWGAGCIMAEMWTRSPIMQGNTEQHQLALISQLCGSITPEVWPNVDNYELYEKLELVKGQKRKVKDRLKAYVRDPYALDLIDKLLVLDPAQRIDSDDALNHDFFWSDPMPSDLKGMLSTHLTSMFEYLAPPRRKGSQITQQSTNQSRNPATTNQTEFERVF
Sequence (O60563 whole entry partner): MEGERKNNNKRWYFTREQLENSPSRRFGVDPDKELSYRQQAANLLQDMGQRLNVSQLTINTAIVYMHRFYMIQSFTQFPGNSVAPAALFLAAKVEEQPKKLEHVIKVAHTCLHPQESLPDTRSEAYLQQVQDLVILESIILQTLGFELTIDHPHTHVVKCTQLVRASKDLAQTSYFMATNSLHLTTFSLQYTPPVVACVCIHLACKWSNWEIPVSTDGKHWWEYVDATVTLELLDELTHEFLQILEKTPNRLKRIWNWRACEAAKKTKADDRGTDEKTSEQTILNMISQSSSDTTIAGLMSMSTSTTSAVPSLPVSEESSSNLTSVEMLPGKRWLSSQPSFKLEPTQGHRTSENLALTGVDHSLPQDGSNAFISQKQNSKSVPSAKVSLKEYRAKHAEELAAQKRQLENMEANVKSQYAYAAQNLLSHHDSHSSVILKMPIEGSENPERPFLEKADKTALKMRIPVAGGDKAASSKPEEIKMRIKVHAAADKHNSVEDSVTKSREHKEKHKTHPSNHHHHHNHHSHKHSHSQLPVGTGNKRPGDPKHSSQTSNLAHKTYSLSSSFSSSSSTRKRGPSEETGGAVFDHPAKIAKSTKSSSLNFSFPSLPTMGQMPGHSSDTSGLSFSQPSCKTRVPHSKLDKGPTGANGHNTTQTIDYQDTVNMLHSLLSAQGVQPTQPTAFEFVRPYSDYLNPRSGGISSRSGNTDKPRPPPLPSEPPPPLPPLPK
assay.text: Ligand efficiency and ligand lipophilic efficiency (DataWarrior)
condition.details: LE=−RTlnIC50/N
metric: LE
// return just the number, without any unit appended

Worked set:
{"smiles.code": "N#Cc1cnc(Nc2cccc(S(N)(=O)=O)c2)nc1-c1ccc(F)cc1", "LE": 0.3394}
{"smiles.code": "N#Cc1cnc(Nc2cccc(S(N)(=O)=O)c2)nc1-c1ccc(Cl)cc1", "LE": 0.3384}
{"smiles.code": "NS(=O)(=O)c1cccc(Nc2nccc(-c3ccc(C(F)(F)F)cc3)n2)c1", "LE": 0.3254}

Proceed to the following item.
INPUT: Report LE for `N#Cc1cnc(Nc2ccccc2)nc1-c1ccccc1` tested on CDK9/CycT1 (Homo sapiens, UniProt P50750).
OUTPUT: 0.4289

====

measured.target: CDK8 (Homo sapiens)
Sequence (P49336 whole entry): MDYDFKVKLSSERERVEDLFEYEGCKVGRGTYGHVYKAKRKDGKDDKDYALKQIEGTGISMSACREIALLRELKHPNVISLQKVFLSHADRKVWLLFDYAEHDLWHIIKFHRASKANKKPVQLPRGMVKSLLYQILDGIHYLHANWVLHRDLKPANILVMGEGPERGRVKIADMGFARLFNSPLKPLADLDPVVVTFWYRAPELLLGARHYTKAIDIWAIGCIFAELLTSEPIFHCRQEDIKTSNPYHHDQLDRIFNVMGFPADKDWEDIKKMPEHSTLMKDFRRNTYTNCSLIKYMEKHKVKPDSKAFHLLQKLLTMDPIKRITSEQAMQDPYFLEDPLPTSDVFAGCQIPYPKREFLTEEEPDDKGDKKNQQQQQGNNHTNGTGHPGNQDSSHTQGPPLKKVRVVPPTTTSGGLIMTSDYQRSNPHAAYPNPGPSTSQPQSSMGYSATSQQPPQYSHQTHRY
Sequence (P24863 whole entry partner): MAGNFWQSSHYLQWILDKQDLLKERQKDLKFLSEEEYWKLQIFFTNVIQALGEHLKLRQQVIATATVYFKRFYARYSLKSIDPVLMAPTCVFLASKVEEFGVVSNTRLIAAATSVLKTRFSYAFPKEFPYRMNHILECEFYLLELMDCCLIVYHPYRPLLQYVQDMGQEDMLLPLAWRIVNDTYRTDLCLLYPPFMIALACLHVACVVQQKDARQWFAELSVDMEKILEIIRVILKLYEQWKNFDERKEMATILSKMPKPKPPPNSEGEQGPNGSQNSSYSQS
assay.text: In vitro CDK8 enzyme inhibition assay
Binning scheme for IC50: L (below 2 µM), M (2 µM to below 4 µM), H (4 µM or more)

Here are 8 compounds together with their reported answers.
{"compound": "NS(=O)(=O)c1cccc(Nc2nccc(-c3ccc(F)cc3)n2)c1 [Compound 5f]", "measured.target": "CDK8 (Homo sapiens)", "category.label": "L"}
{"compound": "N#Cc1cnc(Nc2ccccc2)nc1-c1ccccc1 [Compound 5m]", "measured.target": "CDK8 (Homo sapiens)", "category.label": "L"}
{"compound": "N#Cc1cnc(Nc2cccc(S(N)(=O)=O)c2)nc1-c1ccc(Cl)cc1 [Compound 5k]", "measured.target": "CDK8 (Homo sapiens)", "category.label": "M"}
{"compound": "NS(=O)(=O)c1cccc(Nc2nccc(-c3ccc(C(F)(F)F)cc3)n2)c1 [Compound 5d]", "measured.target": "CDK8 (Homo sapiens)", "category.label": "L"}
{"compound": "N#Cc1cnc(Nc2cccc(S(N)(=O)=O)c2)nc1-c1ccc(F)cc1 [Compound 5l]", "measured.target": "CDK8 (Homo sapiens)", "category.label": "L"}
{"compound": "COc1ccc(-c2ccnc(Nc3cccc(S(N)(=O)=O)c3)n2)cc1 [Compound 5c]", "measured.target": "CDK8 (Homo sapiens)", "category.label": "H"}
{"compound": "NS(=O)(=O)c1cccc(Nc2nccc(-c3ccc([N+](=O)[O-])cc3)n2)c1 [Compound 5g]", "measured.target": "CDK8 (Homo sapiens)", "category.label": "H"}
{"compound": "NS(=O)(=O)c1cccc(Nc2nccc(-c3ccncc3)n2)c1 [Compound 5i]", "measured.target": "CDK8 (Homo sapiens)", "category.label": "H"}

INPUT: Please report the category associated with NS(=O)(=O)c1cccc(Nc2nccc(-c3ccc(Cl)cc3)n2)c1 [Compound 5b] , nothing else.
OUTPUT: M

INPUT: Same for NS(=O)(=O)c1cccc(Nc2nccc(-c3ccc(OC(F)(F)F)cc3)n2)c1 [Compound 5e]
OUTPUT: L

INPUT: Repeat for the following compound: NS(=O)(=O)c1cccc(Nc2nccc(-c3ccccn3)n2)c1 [Compound 5h]
OUTPUT: H

INPUT: Further, for NS(=O)(=O)c1cccc(Nc2nccc(-c3ccccc3)n2)c1 [Compound 5a] ?
OUTPUT: M

All values here come from paper PMC10254914.
